Biological target: T. gondii CDPK1 (tgCDPK1) (Toxoplasma gondii, UniProt Q9BJF5)
Sequence (Q9BJF5 1-507): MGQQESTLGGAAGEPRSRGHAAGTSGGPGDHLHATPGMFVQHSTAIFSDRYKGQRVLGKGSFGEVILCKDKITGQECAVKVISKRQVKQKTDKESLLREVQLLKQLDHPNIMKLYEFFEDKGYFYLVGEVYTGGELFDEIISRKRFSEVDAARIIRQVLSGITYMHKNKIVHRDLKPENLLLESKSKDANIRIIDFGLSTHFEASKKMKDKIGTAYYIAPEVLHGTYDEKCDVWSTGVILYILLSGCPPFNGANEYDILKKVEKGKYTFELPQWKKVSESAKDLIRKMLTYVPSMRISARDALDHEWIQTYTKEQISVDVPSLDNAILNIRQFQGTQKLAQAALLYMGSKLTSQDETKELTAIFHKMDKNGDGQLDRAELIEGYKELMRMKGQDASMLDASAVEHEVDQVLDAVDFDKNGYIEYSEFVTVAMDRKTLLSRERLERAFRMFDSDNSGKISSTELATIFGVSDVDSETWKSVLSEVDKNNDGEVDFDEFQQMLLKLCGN
Test: biochemical
Settings: inhibition of T. gondii CDPK1; at least three independent replicates; read-out: tgCDPK1 IC50
Procedure: Certain of the compounds prepared as described above were assayed to determine their IC50 for inhibition of T. gondii CDPK1 (tgCDPK1). At least three independent replicates of the assay were conducted for each compound tested.
IC50 listing for selected compounds.
Could you give me the number in nM? Just the number is fine.

Some solved cases for reference:
compound="Nc1ncnc2c1c(Oc1cc(O)ccn1)nn2[C@@H]1CCCC[C@H]1O (single isomer, unassigned)" study_system="T. gondii CDPK1 (tgCDPK1) (Toxoplasma gondii, UniProt Q9BJF5)" obs_value=147
compound="Nc1ncnc2c1c(Oc1cc(C(F)(F)F)ccn1)nn2CC1CC(B(O)O)C1 (stereo not shown)" study_system="T. gondii CDPK1 (tgCDPK1) (Toxoplasma gondii, UniProt Q9BJF5)" obs_value=28.7
compound=Nc1ncnc2c1c(Oc1cc(Cl)ccn1)nn2C1CCC(F)(F)CC1 study_system="T. gondii CDPK1 (tgCDPK1) (Toxoplasma gondii, UniProt Q9BJF5)" obs_value=35.3

Let us examine a further case.
Give recorded IC50. Nc1ncnc2c1c(Oc1cc(C(F)(F)F)ccn1)nn2CC1(C(F)(F)F)CC1
31
